Where these numbers come from: patent US5491170A

Biological target: acyl-CoA: cholesterol acyltransferase (ACAT) (Rattus norvegicus, UniProt Q7TQM4)
Construct: tissue preparation containing rat liver microsomes (designated LAI); from tissue; host or cells: rat liver microsomes
Sequence (Q7TQM4 1-524): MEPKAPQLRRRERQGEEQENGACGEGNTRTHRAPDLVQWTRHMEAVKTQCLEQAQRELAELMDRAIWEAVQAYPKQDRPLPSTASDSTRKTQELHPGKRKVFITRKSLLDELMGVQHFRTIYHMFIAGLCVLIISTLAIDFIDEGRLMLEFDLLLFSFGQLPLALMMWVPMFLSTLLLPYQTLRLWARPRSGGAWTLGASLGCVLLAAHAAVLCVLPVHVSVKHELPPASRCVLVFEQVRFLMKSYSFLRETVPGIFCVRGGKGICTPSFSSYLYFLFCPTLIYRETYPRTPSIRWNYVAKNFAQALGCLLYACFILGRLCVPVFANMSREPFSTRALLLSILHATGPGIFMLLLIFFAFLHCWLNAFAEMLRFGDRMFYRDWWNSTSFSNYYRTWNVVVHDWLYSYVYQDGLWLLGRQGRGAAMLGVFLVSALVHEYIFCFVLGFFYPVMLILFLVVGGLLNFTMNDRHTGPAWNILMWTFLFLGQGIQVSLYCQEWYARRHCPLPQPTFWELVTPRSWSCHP
Assay: LAI: in vitro inhibition of ACAT (acylation of cholesterol by radiolabeled oleic acid) in rat liver microsomes
Format: biochemical
IC50 overview
measurement.label: IC50

{"molecule.smiles": "CCCCCCCCCCCCSC(=O)CS(=O)(=O)Nc1ccc(F)cc1F", "system.under.test": "acyl-CoA: cholesterol acyltransferase (ACAT) (Rattus norvegicus, UniProt Q7TQM4)", "observed.result": "0.23 µM"}
{"molecule.smiles": "CCCCCCCCCCCCn1nnc(NC(=O)CS(=O)(=O)Nc2c(C(C)C)cccc2C(C)C)n1", "system.under.test": "acyl-CoA: cholesterol acyltransferase (ACAT) (Rattus norvegicus, UniProt Q7TQM4)", "observed.result": "1.9 µM"}
{"molecule.smiles": "CCCCCCCCCCOC(=O)CS(=O)(=O)Nc1c(C(C)C)cccc1C(C)C", "system.under.test": "acyl-CoA: cholesterol acyltransferase (ACAT) (Rattus norvegicus, UniProt Q7TQM4)", "observed.result": "> 1 µM"}
{"molecule.smiles": "CCCCCCOC(=O)CS(=O)(=O)Nc1c(C(C)C)cccc1C(C)C", "system.under.test": "acyl-CoA: cholesterol acyltransferase (ACAT) (Rattus norvegicus, UniProt Q7TQM4)", "observed.result": "> 1 µM"}
{"molecule.smiles": "CCCCCCNC(=O)CS(=O)(=O)Nc1c(C(C)C)cccc1C(C)C", "system.under.test": "acyl-CoA: cholesterol acyltransferase (ACAT) (Rattus norvegicus, UniProt Q7TQM4)", "observed.result": "> 5 µM"}
{"molecule.smiles": "CCOC(=O)CS(=O)(=O)Nc1c(C(C)C)cccc1C(C)C", "system.under.test": "acyl-CoA: cholesterol acyltransferase (ACAT) (Rattus norvegicus, UniProt Q7TQM4)", "observed.result": "> 1 µM"}
{"molecule.smiles": "CC(C)c1cccc(C(C)C)c1NS(=O)(=O)CC(=O)Sc1c(C(C)C)cccc1C(C)C", "system.under.test": "acyl-CoA: cholesterol acyltransferase (ACAT) (Rattus norvegicus, UniProt Q7TQM4)", "observed.result": "> 5 µM"}
